Where do the numbers come from? From patent US20260184669A1.

EXPERIMENT: Stability of mRNA-LNPs according to storage temperature and duration
Format: physicochemical
CONDITION_SUMMARY: fLuc mRNA-LNP stored at 4° C., day 7
Description: Stability of fLuc mRNA-LNPs produced using various ionizable lipids according to the method of Example 27, was assessed by storing the LNPs at 4° C. and 25° C. At 1, 7, and 30 days post-manufacture, the size, PDI, and encapsulation efficiency (EE) of each mRNA-LNPs samples were measured using the methods described in Experimental Examples 2 and 3.
QUANTITY_NAME: Normalized EE % D-7 (%)
Number only, in %; omit the unit.

# MOLECULE, Normalized EE % D-7, %
records = [
    ("CCCCCCCCCCCOC(=O)CCCCCN(CCCCCCCC(=O)OC(CCCCCCCC)CCCCCCCC)CC(O)CCCCNC(=O)c1c(O)ccn1C (stereo not drawn)", 90.5),
    ("CCCCCCCCCCCOC(=O)CCCCCN(CCCCCCCC(=O)OC(CCCCCCCC)CCCCCCCC)CC(O)CCCCNC(=O)c1c[nH]c(O)n1 (stereo not drawn)", 83.7),
    ("CCCCCCCCCCCOC(=O)CCCCCN(CCCCCCCC(=O)OC(CCCCCCCC)CCCCCCCC)CC(O)CCCCNC(=O)c1ncc[nH]1 (stereo not drawn)", 83.3),
    ("CCCCCCCCCCCOC(=O)CCCCCN(CCCCCCCC(=O)OC(CCCCCCCC)CCCCCCCC)CC(O)CCCCNC(=O)c1cc[nH]c1 (stereo not drawn)", 91.3),
    ("CCCCC/C=C\\C/C=C\\CCCCCCCCC(CCCCCCCC/C=C\\C/C=C\\CCCCC)OC(=O)CCCN(C)C [MC3, DLin-MC3-DMA, reference compound]", 94.0),
]

Read the next record carefully.
Suppose we examine the molecule CCCCCCCCCCCOC(=O)CCCCCN(CCCCCCCC(=O)OC(CCCCCCCC)CCCCCCCC)CC(O)CCCCNC(=O)c1ccn(C)c1 (stereo not drawn) ; what Normalized EE % D-7 value has been reported?
90.6

* * *

EXPERIMENT: Stability of mRNA-LNPs according to storage temperature and duration
Format: physicochemical
CONDITION_SUMMARY: fLuc mRNA-LNP stored at 4° C., day 30
QUANTITY_NAME: Normalized EE % D-30 (%)
Please reply with the bare figure in % and do not write the unit itself.

As a guide, the following entries are already answered.
# COMPOUND, Normalized EE % D-30, %
records = [
    ("CCCCCCCCCCCOC(=O)CCCCCN(CCCCCCCC(=O)OC(CCCCCCCC)CCCCCCCC)CC(O)CCCCNC(=O)c1c[nH]cn1 (stereo not drawn) [Compound 34]", 91.4),
    ("CCCCCCCCCCCOC(=O)CCCCCN(CCCCCCCC(=O)OC(CCCCCCCC)CCCCCCCC)CC(O)CCCCNC(=O)c1cc[nH]c1 (stereo not drawn) [Compound 17]", 89.8),
]

We now examine a further compound.
Find the recorded Normalized EE % D-30 belonging to CCCCCCCCCCCOC(=O)CCCCCN(CCCCCCCC(=O)OC(CCCCCCCC)CCCCCCCC)CC(O)CCCCNC(=O)c1ncc[nH]1 (stereo not drawn) [Compound 33] and report it.
89.3

* * *

Normalized EE % D-30 values by entry
EXPERIMENT: Stability of mRNA-LNPs according to storage temperature and duration
Format: physicochemical
CONDITION_SUMMARY: fLuc mRNA-LNP stored at 25° C., day 30
Kindly provide the numeric value in % only, without the unit symbol.

# COMPOUND, QUANTITY_NAME, OBSERVED_MEASUREMENT
records = [
    ("CCCCCCCCCCCOC(=O)CCCCCN(CCCCCCCC(=O)OC(CCCCCCCC)CCCCCCCC)CC(O)CCCCNC(=O)c1c[nH]c(O)n1 (stereo not drawn)", "Normalized EE % D-30", 88.3),
]

Given the entry CCCCCCCCCCCOC(=O)CCCCCN(CCCCCCCC(=O)OC(CCCCCCCC)CCCCCCCC)CC(O)CCCCNC(=O)c1cnc(O)n1C (stereo not drawn) , report its measured Normalized EE % D-30.
89.3

I'd like to know its Normalized EE % D-30. The compound in question is CCCCCCCCCCCOC(=O)CCCCCN(CCCCCCCC(=O)OC(CCCCCCCC)CCCCCCCC)CC(O)CCCCNC(=O)c1c[nH]cn1 (stereo not drawn)
89.3

Entry CCCCCCCCCCCOC(=O)CCCCCN(CCCCCCCC(=O)OC(CCCCCCCC)CCCCCCCC)CC(O)CCCCNC(=O)c1cc[nH]c1 (stereo not drawn) : reported Normalized EE % D-30 = ?
88.6

Consider the compound CCCCCCCCCCCOC(=O)CCCCCN(CCCCCCCC(=O)OC(CCCCCCCC)CCCCCCCC)CC(O)CCCCNC(=O)c1cccn1C (stereo not drawn) and give its measured Normalized EE % D-30.
87.0

I'd like to know its Normalized EE % D-30. The compound in question is CCCCCCCCCCCOC(=O)CCCCCN(CCCCCCCC(=O)OC(CCCCCCCC)CCCCCCCC)CC(O)CCCCNC(=O)c1ccc[nH]1 (stereo not drawn)
84.4

What measured Normalized EE % D-30 goes with CCCCCCCCCCCOC(=O)CCCCCN(CCCCCCCC(=O)OC(CCCCCCCC)CCCCCCCC)CC(O)CCCCNC(=O)c1ncc[nH]1 (stereo not drawn) ?
87.2

Reported Normalized EE % D-30 for CCCCC/C=C\C/C=C\CCCCCCCCC(CCCCCCCC/C=C\C/C=C\CCCCC)OC(=O)CCCN(C)C [MC3, DLin-MC3-DMA, reference compound] : what is it?
88.3

Consider the compound CCCCCCCCCCCOC(=O)CCCCCN(CCCCCCCC(=O)OC(CCCCCCCC)CCCCCCCC)CC(O)CCCCNC(=O)c1cn(C)cn1 (stereo not drawn) and give its measured Normalized EE % D-30.
83.8

Which measured Normalized EE % D-30 value corresponds to CCCCCCCCCCCOC(=O)CCCCCN(CCCCCCCC(=O)OC(CCCCCCCC)CCCCCCCC)CC(O)CCCCNC(=O)c1nccn1C (stereo not drawn) ?
83.8

Would you kindly share the measured Normalized EE % D-30 for CCCCCCCCCCCOC(=O)CCCCCN(CCCCCCCC(=O)OC(CCCCCCCC)CCCCCCCC)CC(O)CCCCNC(=O)c1cncn1C (stereo not drawn) ?
86.1

Look up Normalized EE % D-30: CCCCCCCCCCCOC(=O)CCCCCN(CCCCCCCC(=O)OC(CCCCCCCC)CCCCCCCC)CC(O)CCCCNC(=O)c1ccn(C)c1 (stereo not drawn)
88.3
